# Test system: HS 578T breast
# test details: NCI tumour cell line growth inhibition, 48 h
*1 amine or outer side, *2 acyl side, *3 side chain or, on linkers, in order; H or OH if unused. Where a SMILES comes first, the peptide text is derived from it. Bridges are numbered along the chain shown (N, C = ends). Roman numbers before positions name the chains, in order. [ ]: non-standard residue; d: D form. Actinocin(9to1) = Cc1c2oc3c(C)ccc(C(=O)[*:1])c3nc-2c(C(=O)[*:2])c(N)c1=O; NMeV = CN[CH](C(=O)O)C(C)C; Sar = CNCC(=O)O
metric name: TGI

[[record]]
molecule = "N#Cc1nc(-c2cnccn2)oc1N"
metric_name = "TGI"
measurement = "> 100 µM"

[[record]]
molecule = "COC(=O)/C=C/c1cc(OC(C)=O)c2c(c1)[C@@H](C(=O)OC)[C@H](c1ccc(OC(C)=O)c(OC(C)=O)c1)O2"
metric_name = "TGI"
measurement = "17.7 µM"

[[record]]
molecule = "CCOc1ccc(NC2=CC(=O)C(=O)c3ccccc32)cc1"
metric_name = "TGI"
measurement = "5.9 µM"

[[record]]
molecule = "Cc1c2oc3c(C)ccc(C(=O)NC4C(=O)NC(C(C)C)C(=O)N5CCCC5C(=O)N(C)CC(=O)N(C)C(C(C)C)C(=O)OC4C)c3nc-2c(C(=O)NC2C(=O)NC(C(C)C)C(=O)N3CCCC3C(=O)N(C)CC(=O)N(C)C(C(C)C)C(=O)OC2C)c(N)c1=O (stereo not drawn) (I: TVP[Sar][NMeV] / II: TVP[Sar][NMeV]; ester I:1-I:C, II:1-II:C; linker I:N-II:N via Actinocin(9to1); configuration not given here)"
metric_name = "TGI"
measurement = "0.00439 µM"

[[record]]
molecule = "CC1(C)[C@@H](NOCCCN)CC[C@]2(C)[C@H]3C(=O)C=C4[C@@H]5C[C@](C)(C(=O)O)CC[C@]5(C)CC[C@@]4(C)[C@]3(C)CC[C@@H]12"
metric_name = "TGI"
measurement = "50 µM"

[[record]]
molecule = "C=C(C)C(=O)O[C@@H]1C[C@@]2(C)O[C@@H]2C[C@H](O)/C(C)=C/[C@H]2OC(=O)C(=C)[C@@H]21"
metric_name = "TGI"
measurement = "> 100 µM"

[[record]]
molecule = "COC(=O)CC(C)(NS(=O)c1ccc(C)cc1)c1ccccc1 (stereo not drawn)"
metric_name = "TGI"
measurement = "> 100 µM"

[[record]]
molecule = "O=C1c2ccccc2-n2nnnc2C2CSCN12 (stereo not drawn)"
metric_name = "TGI"
measurement = "> 100 µM"

[[record]]
molecule = "CC#Cc1ccc(-c2ccccc2)s1"
metric_name = "TGI"
measurement = "> 100 µM"

[[record]]
molecule = "CC[C@@H](c1ccc(O)c(O)c1)[C@@H](CC)c1ccc(O)c(O)c1"
metric_name = "TGI"
measurement = "> 100 µM"

[[record]]
molecule = "Oc1ccc(NCn2c(=S)sc3ccccc32)cc1"
metric_name = "TGI"
measurement = "> 100 µM"

[[record]]
molecule = "COc1ccc2oc3c(C)cc4c(OC)nnc(OC)c4c3c2c1"
metric_name = "TGI"
measurement = "> 100 µM"

[[record]]
molecule = "COc1ccc2ncnc(Nc3ccc(OCc4ccccc4)cc3)c2c1"
metric_name = "TGI"
measurement = "> 25 µM"

